# System Tested: MAST1, Q9Y2H9
# Sequence (Q9Y2H9 962-1065): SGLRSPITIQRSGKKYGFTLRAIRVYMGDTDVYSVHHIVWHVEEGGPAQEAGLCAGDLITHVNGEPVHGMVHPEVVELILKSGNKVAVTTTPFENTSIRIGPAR
# Assay Name: holdup assay
# Parameters: key: below the threshold = too weak to quantify, mostly under pKd 3.1 to 4
# Condition Set: plain residues with an end cap or a label only (N-terminal biotin on a linker: ado-ado)
Measured Endpoint: pKd

- Binder: "SKQFDKNAYV [CLDN10, P78369]"
  Measured Endpoint: "pKd"
  Result: "below the threshold"
- Binder: "PALKNGQYWV [CSPG4, Q6UVK1]"
  Measured Endpoint: "pKd"
  Result: "below the threshold"
- Binder: "MLPANYVEAI [NEB, P20929]"
  Measured Endpoint: "pKd"
  Result: "below the threshold"
